# TARGET OF ASSAY: Transient receptor potential cation channel subfamily M member 8 (Homo sapiens)
# ASSAY INFO: Antagonist activity at human TRPM8 transfected in HEK293T cells assessed as inhibition of intracellular Ca2+ level by Fluo-4 dye based fluorescence assay
# Assay type: cell-based
pIC50: −log10 of the molar value.

{"columns": ["MOL SMILES", "pIC50"],
 "data": [
  ["O=C(N[C@H](Cn1nccn1)C(F)(F)CO)c1cccc(F)c1-c1cc(-c2ccc(F)cc2)[nH]n1", 7.60]
]}

---

# TARGET OF ASSAY: Transient receptor potential cation channel subfamily M member 8 (Homo sapiens, UniProt Q7Z2W7)
# Sequence (Q7Z2W7 whole entry): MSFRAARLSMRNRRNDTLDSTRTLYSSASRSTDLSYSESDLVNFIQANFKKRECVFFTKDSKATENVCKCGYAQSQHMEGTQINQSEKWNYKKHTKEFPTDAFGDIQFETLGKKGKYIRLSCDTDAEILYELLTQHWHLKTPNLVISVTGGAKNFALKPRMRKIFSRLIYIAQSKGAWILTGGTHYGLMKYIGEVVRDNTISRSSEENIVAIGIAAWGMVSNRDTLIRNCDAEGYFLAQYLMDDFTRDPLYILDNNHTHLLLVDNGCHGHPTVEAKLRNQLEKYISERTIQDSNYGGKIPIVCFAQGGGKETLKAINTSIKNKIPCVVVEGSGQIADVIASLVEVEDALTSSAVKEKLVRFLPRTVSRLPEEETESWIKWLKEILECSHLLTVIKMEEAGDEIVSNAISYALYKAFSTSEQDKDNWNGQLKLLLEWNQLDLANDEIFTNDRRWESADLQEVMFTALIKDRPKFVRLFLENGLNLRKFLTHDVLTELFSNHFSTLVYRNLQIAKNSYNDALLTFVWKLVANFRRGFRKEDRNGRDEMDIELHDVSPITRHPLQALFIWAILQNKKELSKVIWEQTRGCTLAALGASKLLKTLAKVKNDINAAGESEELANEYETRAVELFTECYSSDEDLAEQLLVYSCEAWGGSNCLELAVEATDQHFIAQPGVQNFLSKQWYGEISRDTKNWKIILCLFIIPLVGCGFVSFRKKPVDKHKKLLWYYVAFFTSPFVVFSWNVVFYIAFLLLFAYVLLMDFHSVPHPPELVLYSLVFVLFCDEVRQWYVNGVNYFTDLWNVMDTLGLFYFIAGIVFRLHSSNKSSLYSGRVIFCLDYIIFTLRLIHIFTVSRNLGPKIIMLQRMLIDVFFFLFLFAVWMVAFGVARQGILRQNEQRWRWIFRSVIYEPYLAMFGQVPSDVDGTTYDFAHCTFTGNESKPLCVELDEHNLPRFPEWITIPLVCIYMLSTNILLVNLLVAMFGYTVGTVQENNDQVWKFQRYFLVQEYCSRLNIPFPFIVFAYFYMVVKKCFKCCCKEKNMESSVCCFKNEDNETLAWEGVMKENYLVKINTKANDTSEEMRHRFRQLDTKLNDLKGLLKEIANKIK
# ASSAY INFO: Agonist activity at TRPM8 (unknown origin)
REPORTED PROPERTY: EC50 (nM)

{"columns": ["MOL SMILES", "REPORTED PROPERTY", "UNIT TEXT", "NUMERIC RESULT"],
 "data": [
  ["O=C1NC(c2cccc([N+](=O)[O-])c2)=CCN1c1ccccc1O", "EC50", "nM", 5]
]}

---

# TARGET OF ASSAY: Transient receptor potential cation channel subfamily M member 8 (Homo sapiens, UniProt Q7Z2W7)
# ASSAY INFO: Antagonist activity at TRPM8 (unknown origin) in HEK293T cells
# Format: cell-based

{"columns": ["MOLECULE", "UNIT TEXT", "IC50"],
 "data": [
  ["c1cc2c(cc1[C@H]1OC[C@H]3[C@@H]1CO[C@@H]3c1ccc3c(c1)OCO3)OCO2 [SESAMIN]", "µM", 9.78]
]}

---

# TARGET OF ASSAY: Transient receptor potential cation channel subfamily A member 1 (Homo sapiens, UniProt O75762)
# Sequence (O75762 whole entry): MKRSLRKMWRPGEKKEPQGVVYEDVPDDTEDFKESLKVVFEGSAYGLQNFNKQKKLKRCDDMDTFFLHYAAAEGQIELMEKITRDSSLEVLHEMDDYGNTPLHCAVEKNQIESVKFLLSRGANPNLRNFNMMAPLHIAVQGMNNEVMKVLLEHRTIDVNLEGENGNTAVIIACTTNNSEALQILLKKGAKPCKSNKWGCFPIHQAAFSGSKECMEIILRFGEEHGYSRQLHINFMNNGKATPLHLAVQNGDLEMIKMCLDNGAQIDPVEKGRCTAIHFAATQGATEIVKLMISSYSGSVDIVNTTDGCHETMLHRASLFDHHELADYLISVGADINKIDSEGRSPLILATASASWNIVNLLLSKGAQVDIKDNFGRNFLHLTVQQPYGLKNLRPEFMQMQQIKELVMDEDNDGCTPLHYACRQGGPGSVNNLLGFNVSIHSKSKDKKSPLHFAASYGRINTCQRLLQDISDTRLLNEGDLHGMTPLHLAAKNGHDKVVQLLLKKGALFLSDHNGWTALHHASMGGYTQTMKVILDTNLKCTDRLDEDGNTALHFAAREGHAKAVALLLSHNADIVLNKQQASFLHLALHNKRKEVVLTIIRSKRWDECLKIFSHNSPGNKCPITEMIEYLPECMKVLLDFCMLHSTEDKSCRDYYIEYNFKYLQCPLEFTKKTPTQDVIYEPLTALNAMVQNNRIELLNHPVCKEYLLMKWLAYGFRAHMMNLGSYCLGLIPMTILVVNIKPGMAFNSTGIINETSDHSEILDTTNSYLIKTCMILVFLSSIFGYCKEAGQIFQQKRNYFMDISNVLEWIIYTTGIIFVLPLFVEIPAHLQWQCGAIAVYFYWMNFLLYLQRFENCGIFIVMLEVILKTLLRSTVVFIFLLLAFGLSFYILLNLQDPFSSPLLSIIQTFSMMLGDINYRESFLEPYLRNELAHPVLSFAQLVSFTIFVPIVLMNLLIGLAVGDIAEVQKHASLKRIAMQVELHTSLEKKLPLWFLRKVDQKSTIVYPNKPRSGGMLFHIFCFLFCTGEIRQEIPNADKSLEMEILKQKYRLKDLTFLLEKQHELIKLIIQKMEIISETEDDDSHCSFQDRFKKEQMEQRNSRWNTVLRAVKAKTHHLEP
# ASSAY INFO: Antagonist activity at recombinant TRPA1 (unknown origin) expressed in T-REx-293 cells assessed as inhibition of AITC-induced intracellular Ca2+ flux by patch clamp assay
# Type: cell-based
REPORTED PROPERTY: IC50

{"columns": ["MOL SMILES", "RESULT"],
 "data": [
  ["CCN(c1cccc(C)c1)S(=O)(=O)c1nnc(NC(=O)c2ccccc2)s1", "130 nM"]
]}

---

# TARGET OF ASSAY: Transient receptor potential cation channel subfamily M member 8 (Homo sapiens, UniProt Q7Z2W7)
# ASSAY INFO: Antagonist activity at human recombinant TRPM8 stably transfected in HEK293 cells assessed as inhibition of intracellular Ca2+ flux incubated for 60 mins by Fluo-4 dye based fluorescence assay
# Format: cell-based

{"columns": ["MOL SMILES", "UNIT TEXT", "IC50"],
 "data": [
  ["C[C@H]1C(=O)N(C[C@@H](Cc2ccccc2)N(Cc2ccccc2)Cc2ccccc2)[C@@]1(Cc1ccccc1)C(=O)OCc1ccccc1", "nM", 20],
  ["C[C@@H]1C(=O)N(C[C@@H](Cc2ccccc2)N(Cc2ccccc2)Cc2ccccc2)[C@]1(Cc1ccccc1)C(=O)OCc1ccccc1", "nM", 300]
]}

---

# pIC50 values compiled below
# TARGET OF ASSAY: Transient receptor potential cation channel subfamily M member 8 (Homo sapiens, UniProt Q7Z2W7)
# ASSAY INFO: Antagonist activity at TRPM8 (unknown origin)
pIC50: −log10 of the molar value.

{"columns": ["MOL SMILES", "pIC50"],
 "data": [
  ["C[C@H]1C(=O)N(C[C@@H](Cc2ccccc2)N(Cc2ccccc2)Cc2ccccc2)[C@@]1(Cc1ccccc1)C(=O)OCc1ccccc1", 7.70],
  ["C[C@@H]1C(=O)N(C[C@@H](Cc2ccccc2)N(Cc2ccccc2)Cc2ccccc2)[C@]1(Cc1ccccc1)C(=O)OCc1ccccc1", 6.52],
  ["C[C@@H]1C(=O)N(C[C@H](Cc2ccccc2)N(Cc2ccccc2)Cc2ccccc2)[C@]1(Cc1ccccc1)C(=O)OCc1ccccc1", 5.51],
  ["C[C@H]1C(=O)N(C[C@H](Cc2ccccc2)N(Cc2ccccc2)Cc2ccccc2)[C@@]1(Cc1ccccc1)C(=O)OCc1ccccc1", 6.15]
]}

---

# TARGET OF ASSAY: Transient receptor potential cation channel subfamily A member 1 (Homo sapiens, UniProt O75762)
# ASSAY INFO: Antagonist activity at TRPA1 (unknown origin) transfected in HEK293F cells assessed as reduction in intracellular Ca2+ by fluorescence based assay
# Format: cell-based
REPORTED PROPERTY: EC50 (nM)

{"columns": ["MOL SMILES", "NUMERIC RESULT"],
 "data": [
  ["COc1ccc(OC)c(NC(=O)c2nnn(Cc3ccc(Br)cc3F)c2N)c1", 45]
]}

---

# TARGET OF ASSAY: Transient receptor potential cation channel subfamily M member 8 (Homo sapiens, UniProt Q7Z2W7)
# ASSAY INFO: Antagonist activity at human TRPM8 expressed in HEK293 cells
# Type: cell-based
pIC50: −log10 of the molar value.

{"columns": ["MOL SMILES", "pIC50"],
 "data": [
  ["C[C@H]1C(=O)N(C[C@@H](Cc2ccccc2)N(Cc2ccccc2)Cc2ccccc2)[C@@]1(Cc1ccccc1)C(=O)OCc1ccccc1", 7.30]
]}
